From: ChEMBL document CHEMBL1130287

ASSAY NAME: Area under curve was determined in portal blood of rat when administered intradermally
Assay type: ADME, organism-based
Parameters: concentration or dose not given beside the values
PROTOCOL CONDITIONS: in the assay text read “intraduodenally” for “intradermally”
METRIC NAME: AUC (ng·h/mL)

Examples with answers:
CCCCN(CCCC)C(=O)CN1C[C@H](c2ccc3ccoc3c2)[C@@H](C(=O)O)[C@@H]1c1ccc(OC)cc1 :: 9000
CCCCN(CCCC)C(=O)CN1C[C@H](c2ccc3c(c2)CCO3)[C@@H](C(=O)O)[C@@H]1c1ccc(OC)cc1 :: 8830
CCCCN(CCCC)C(=O)CN1C[C@H](c2ccc3c(c2)OCO3)[C@@H](C(=O)O)[C@@H]1c1ccc(OC)cc1 :: 10700

I = CCCCN(CCCC)C(=O)CN1C[C@H](c2ccc3c(c2)OCC3)[C@@H](C(=O)O)[C@@H]1c1ccc(OC)cc1
II = CCCCN(CCCC)C(=O)CN1C[C@H](c2ccc3occc3c2)[C@@H](C(=O)O)[C@@H]1c1ccc(OC)cc1
input: Among I and II , which shows a numerically higher AUC result? Label of pick, please.
output: I
(I: 12200 ng·h/mL, II: 4000 ng·h/mL)

###

Reported IC50 values, Endothelin receptor type B (Sus scrofa).
METRIC NAME: IC50 (µM)

CCCN(C)C(=O)CN1C[C@H](c2ccc3c(c2)CCO3)[C@@H](C(=O)O)[C@@H]1c1ccc(OC)cc1 :: 19

A = CCCN(C)C(=O)CN1C[C@H](c2ccc3c(c2)OCC3)[C@@H](C(=O)O)[C@@H]1c1ccc(OC)cc1
B = CCCCN(CCCC)C(=O)CN1C[C@H](c2ccc(OC)cc2OC)[C@@H](C(=O)O)[C@@H]1c1ccc(OC)cc1
C = CCCN(C)C(=O)CN1C[C@H](c2ccc3c(c2)CCC3)[C@@H](C(=O)O)[C@@H]1c1ccc(OC)cc1
D = CCCCN(CCCC)C(=O)CN1C[C@H](c2ccc(OC)cc2)[C@@H](C(=O)O)[C@@H]1c1ccc(OC)cc1
E = CCCCN(CCCC)C(=O)CN1C[C@H](c2ccc(F)c(F)c2)[C@@H](C(=O)O)[C@@H]1c1ccc(OC)cc1
input: Given 5 compounds, produce a descending ranking by IC50. # format: label list in the order the request specifies
output: B, E, C, A, D
(B: 48 µM, E: 17 µM, C: 11 µM, A: 6.4 µM, D: 4.1 µM)

a = CCCCN(CCCC)C(=O)CN1C[C@H](c2ccc3ccoc3c2)[C@@H](C(=O)O)[C@@H]1c1ccc(OC)cc1
b = CCCCN(CCCC)C(=O)CN1C[C@H](c2ccc3c(c2)CCO3)[C@@H](C(=O)O)[C@@H]1c1ccc(OC)cc1
input: Which record shows the lower IC50: the first, a , or the second, b ? Selection: enter the item's label.
output: b
